biological target: FSHR (Homo sapiens); construct: expressed in transfected cells; host or cells: CHO (Cho-FSHR-LUC-1-1-43); experiment: EC50 of cyclic AMP production in CHO FSHR cells + EC20 FSH (Assay A); type: cell-based; conditions: CHO FSHR cells + EC20 FSH; Table 2; read-out: Assay A EC50 of cyclic AMP production
Listed compounds paired with reported EC50

[[record]]
compound = "Cc1ccccc1N1CCN(c2ccc(C(=O)NCCCC3CCOC3)cc2NC(=O)c2coc(C3CC3)n2)CC1 (stereo not drawn)"
metric_name = "EC50"
result = "0.1 to 1 µM"

[[record]]
compound = "Cc1ccccc1N1CCN(c2ccc(C(=O)NCCCNC(=O)C3CC3)cc2NC(=O)c2coc(C3CC3)n2)CC1"
metric_name = "EC50"
result = "0.1 to 1 µM"


Consider the compound shown here: Cc1ccccc1N1CCN(c2ccc(C(=O)N3CC4(COC4)C3)cc2NC(=O)c2ccco2)CC1 What is its recorded EC50?
1 to 10 µM

What measured EC50 goes with Cc1ccc(C(=O)Nc2cc(C(=O)NC(C)CCN3CCCC3=O)ccc2N2CCN(c3ccccc3C)CC2)o1 (stereo not drawn) ?
0.1 to 1 µM

Look up EC50 for this compound: Cc1ccccc1N1CCN(c2ccc(C(=O)NCCCc3nccs3)cc2NC(=O)c2coc(C3CC3)n2)CC1
0.1 to 1 µM

---

biological target: FSHR (Homo sapiens, UniProt P23945); construct: expressed in transfected cells; host or cells: CHO (Cho-FSHR-LUC-1-1-43); assay: EC50 of cyclic AMP production in CHO FSHR cells + EC20 FSH (Assay A); format: cell-based; details: CHO FSHR cells + EC20 FSH; Table 2; read-out: Assay A EC50 of cyclic AMP production
Sequence (P23945 18-695): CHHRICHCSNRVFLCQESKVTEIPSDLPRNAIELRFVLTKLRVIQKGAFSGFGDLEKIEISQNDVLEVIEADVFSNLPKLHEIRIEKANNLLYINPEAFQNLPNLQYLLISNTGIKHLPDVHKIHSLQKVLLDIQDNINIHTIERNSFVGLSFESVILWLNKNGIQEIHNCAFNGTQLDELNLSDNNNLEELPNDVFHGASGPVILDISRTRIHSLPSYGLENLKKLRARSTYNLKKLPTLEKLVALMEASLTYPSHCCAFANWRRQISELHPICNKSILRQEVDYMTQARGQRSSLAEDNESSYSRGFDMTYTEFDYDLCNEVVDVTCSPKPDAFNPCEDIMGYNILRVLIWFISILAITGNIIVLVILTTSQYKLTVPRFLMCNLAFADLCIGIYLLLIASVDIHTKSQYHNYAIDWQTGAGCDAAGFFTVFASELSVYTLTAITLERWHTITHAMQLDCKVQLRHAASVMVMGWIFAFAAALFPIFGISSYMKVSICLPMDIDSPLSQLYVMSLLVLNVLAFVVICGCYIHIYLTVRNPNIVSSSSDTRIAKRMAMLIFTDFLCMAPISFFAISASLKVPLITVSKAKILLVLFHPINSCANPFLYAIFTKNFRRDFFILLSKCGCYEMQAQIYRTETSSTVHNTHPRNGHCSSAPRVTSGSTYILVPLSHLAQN
Sequence (P01215 25-116 partner): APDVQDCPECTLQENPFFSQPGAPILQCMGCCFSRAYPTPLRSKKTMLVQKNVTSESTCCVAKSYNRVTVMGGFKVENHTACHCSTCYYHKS
Sequence (P01225 19-129 partner): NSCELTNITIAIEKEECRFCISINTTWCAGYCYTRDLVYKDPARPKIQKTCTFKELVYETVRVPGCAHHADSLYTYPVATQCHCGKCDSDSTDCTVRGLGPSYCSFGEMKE
Metric name: EC50

Example entries and their recorded answers appear below.
[[record]]
smiles_string = "Cc1ccccc1N1CCN(c2ccc(C(=O)NCCCN3CCC(F)(F)C3)cc2NC(=O)c2coc(C3CC3)n2)CC1"
metric_name = "EC50"
result = "0.1 to 1 µM"

[[record]]
smiles_string = "Cc1ccccc1N1CCN(c2ccc(C(=O)NC[C@@H](O)c3ccccc3)cc2NC(=O)c2ccco2)CC1"
metric_name = "EC50"
result = "0.1 to 1 µM"

[[record]]
smiles_string = "Cc1cncc(N2CCN(c3ccc(C(=O)NCCCN4CCCC4=O)cc3NC(=O)c3coc(C4CC4)n3)CC2)n1"
metric_name = "EC50"
result = "1 to 10 µM"

[[record]]
smiles_string = "Cc1ccccc1N1CCN(c2ccc(C(=O)NCCCN3CCCC3=O)cc2NC(=O)c2cc(C3CC3)on2)CC1"
metric_name = "EC50"
result = "0.1 to 1 µM"

[[record]]
smiles_string = "Cc1ccccc1N1CCN(c2ccc(C(=O)NCCCN3CCCC3=O)cc2NCc2cccc3cccnc23)CC1"
metric_name = "EC50"
result = "0.1 to 1 µM"

[[record]]
smiles_string = "CC(=O)NCC(C)(C)CNC(=O)c1ccc(N2CCN(c3ccccc3C)CC2)c(NC(=O)c2coc(C3CC3)n2)c1"
metric_name = "EC50"
result = "0.1 to 1 µM"


Lab note: need EC50 for O=C(NCCCN1CCCC1=O)c1ccc(N2CC=C(c3ccccc3)CC2)c(NC(=O)c2coc(C3CC3)n2)c1 on FSHR (Homo sapiens, UniProt P23945), anyone have it?
0.1 to 1 µM

Form: Entry = Cc1ccccc1N1CCN(c2ccc(C(=O)NCCCN3C(=O)OC[C@H]3CO)cc2NC(=O)c2coc(C3CC3)n2)CC1 | System = FSHR (Homo sapiens, UniProt P23945) | EC50 = ____
0.1 to 1 µM

Give the reported EC50 for CCc1ccccc1N1CCN(c2ccc(C(=O)NCCCN3CCCC3=O)cc2NC(=O)c2coc(C3CC3)n2)CC1 (system: FSHR (Homo sapiens, UniProt P23945)).
0.1 to 1 µM

API: value(readout=EC50, system=FSHR (Homo sapiens, UniProt P23945)) for record COc1cncc(N2CCN(c3ccc(C(=O)NCCCN4CCCC4=O)cc3NC(=O)c3coc(C4CC4)n3)CC2)c1
> 10 µM

---

target: FSHR (Homo sapiens, UniProt P23945); construct: expressed in transfected cells; host or cells: CHO (Cho-FSHR-LUC-1-1-43); assay: EC50 of cyclic AMP production in CHO FSHR cells + EC20 FSH (Assay A); type: cell-based; details: CHO FSHR cells + EC20 FSH; Table 1; read-out: Assay A EC50 of cyclic AMP production
pEC50: −log10 of the molar value.
Metric name: pEC50

What value of pEC50 has been recorded for this entry: CCc1ccc(C(=O)Nc2cc(C(=O)NCCCN3CCCC3=O)ccc2N2CCN(c3ccccc3C)CC2)o1 [Compound 140]
6.00 to 7.00

---

target: FSHR (Homo sapiens, UniProt P23945); construct: expressed in transfected cells; host or cells: CHO (Cho-FSHR-LUC-1-1-43); assay: EC50 of cyclic AMP production in CHO FSHR cells + EC20 FSH (Assay A); type: cell-based; settings: CHO FSHR cells + EC20 FSH; Table 2; read-out: Assay A EC50 of cyclic AMP production
The entries below come with measured EC50 values attached.

[[record]]
compound = "Cc1ccc(C(=O)Nc2cc(C(=O)NCCCN3CC(C)OC3=O)ccc2N2CCN(c3ccccc3C)CC2)o1 (centres unmarked) [Compound 370]"
tested_target = "FSHR (Homo sapiens, UniProt P23945)"
result = "1 to 10 µM"

[[record]]
compound = "Cc1ccccc1N1CCN(c2ccc(C(=O)N3CCC4(COC4)C3)cc2NC(=O)c2ccco2)CC1 [Compound 587]"
tested_target = "FSHR (Homo sapiens, UniProt P23945)"
result = "1 to 10 µM"


I would be grateful if you could share the reported EC50 for Cc1ccccc1N1CCN(c2ccc(C(=O)NCCCN3CCC(O)C3)cc2NC(=O)c2coc(C3CC3)n2)CC1 (centres unmarked) [Compound 461] .
0.1 to 1 µM

Please report the recorded EC50 for Cc1ccc(C(=O)Nc2cc(C(=O)NC(C)(C)c3cccc(CN(C)C)c3)ccc2N2CCN(c3ccccc3C)CC2)o1 [Compound 545] .
1 to 10 µM

Requested field: EC50. Item: Cc1ccccc1N(C)C1CCN(c2ccc(C(=O)NCCCN3CCCC3=O)cc2NC(=O)c2coc(C3CC3)n2)CC1 [Compound 405]
0.1 to 1 µM

---

target: FSHR (Homo sapiens); construct: expressed in transfected cells; host or cells: CHO (Cho-FSHR-LUC-1-1-43); experiment: EC50 of cyclic AMP production in CHO FSHR cells + EC20 FSH (Assay A); format: cell-based; conditions: CHO FSHR cells + EC20 FSH; Table 2; read-out: Assay A EC50 of cyclic AMP production
Each record here notes measured EC50.

Answered examples (3):
[[record]]
smiles_string = "CC(=O)N(C)CCCNC(=O)c1ccc(N2CCN(c3ccccc3C)CC2)c(NC(=O)c2coc(C3CC3)n2)c1"
tested_target = "FSHR (Homo sapiens)"
metric_name = "EC50"
result = "< 100 nM"

[[record]]
smiles_string = "Cc1ccc(C(=O)Nc2cc(C(=O)NCCCO)ccc2N2CCN(c3ccccc3C)CC2)o1"
tested_target = "FSHR (Homo sapiens)"
metric_name = "EC50"
result = "1000 to 10000 nM"

[[record]]
smiles_string = "Cc1ccccc1N1CCN(c2ccc(C(=O)NCCCN3CCCC3=O)cc2NC(=O)C(F)(F)F)CC1"
tested_target = "FSHR (Homo sapiens)"
metric_name = "EC50"
result = "100 to 1000 nM"


Quick check: EC50 of Cc1ccccc1N1CCN(c2ccc(C(=O)NCCCN3CCOC3=O)cc2NC(=O)c2ccc(Br)o2)CC1 ?
100 to 1000 nM

Sample CC(C)C(=O)N1CCN(c2ccc(C(=O)NCCCN3CCCC3=O)cc2NC(=O)c2coc(C3CC3)n2)CC1 — what was its EC50?
1000 to 10000 nM

Request the reported EC50 associated with CC(=O)NC1(c2ccccc2)CCN(c2ccc(C(=O)NCCCN3CCCC3=O)cc2NC(=O)c2coc(C3CC3)n2)CC1
> 10000 nM

Quick check: EC50 of Cc1ccccc1N1CCN(c2ccc(C(=O)NCCCn3nccc3C3CC3)cc2NC(=O)c2ccco2)CC1 ?
100 to 1000 nM

For the molecule shown here, Cc1ccccc1N1CCN(c2ccc(C(=O)NCCCN3CCCC3=O)cc2NC(=O)c2coc(C3CC3)n2)CC1=O , give the reported EC50.
1000 to 10000 nM

Which EC50 value belongs to Cc1ccccc1N1CCN(c2ccc(C(=O)NCc3cccc(CN(C)C)n3)cc2NC(=O)c2ccco2)CC1 ?
< 100 nM

Bench note: what EC50 did O=C(NCCCN1CCCC1=O)c1ccc(N2CCN(c3nccs3)CC2)c(NC(=O)c2coc(C3CC3)n2)c1 show?
1000 to 10000 nM

Param item = Cc1ccc(C(=O)Nc2cc(C(=O)NCCCN3CCCC3=O)ccc2N2CCN(c3ncncc3C)CC2)o1 ; retrieve measured EC50.
> 10000 nM
